Measured values drawn from ChEMBL document CHEMBL4330185 for this set.

# system: Retinoic acid receptor RXR-alpha (Homo sapiens)
# assayComment: Agonist activity at human Gal4-DBD fused RXRalpha LBD expressed in HEK293T cells after 12 to 14 hrs by luciferase reporter gene assay relative to bexarotene
# Assay type: cell-based
Record Met whenever Emax is at 20% or higher; record Not met when lower.

>>> class("O=C(O)c1ccc(COc2ccc(Br)cc2)cc1")
"Met"
>>> class("Cc1ccccc1OCc1ccc(C(=O)O)cc1")
"Met"
>>> class("CC(C)c1ccc(OCc2ccc(C(=O)O)cc2)cc1")
"Not met"
>>> class("COc1ccccc1OCc1ccc(C(=O)O)cc1")
"Met"
>>> class("CCc1ccc(OCc2ccc(C(=O)O)cc2)cc1")
"Not met"
>>> class("O=C(O)c1ccc(COc2ccc3c(c2)CCC3)cc1")
"Met"
>>> class("O=C(O)Cc1ccc(COc2ccc3c(c2)CCC3)cc1")
"Met"
>>> class("O=C(O)c1ccc(COc2ccc(I)cc2)cc1")
"Not met"
>>> class("CC(C)(C)c1ccc(OCc2ccc(C(=O)O)cc2)c(Cl)c1")
"Met"
>>> class("O=C(O)c1ccc(COc2ccccc2OC(F)(F)F)cc1")
"Met"
>>> class("O=C(O)c1ccc(COc2ccccc2-c2ccccc2)cc1")
"Met"
>>> class("O=C(O)CCc1ccc(COc2ccc3c(c2)CCC3)cc1")
"Met"
>>> class("O=C(O)c1ccc(OCc2cccc(Cl)c2)cc1")
"Met"
>>> class("CC(C)(C)c1ccccc1OCc1ccc(C(=O)O)cc1")
"Not met"

###

# assayComment: Lipophilicity, log P of the compound by HPLC analysis
# Type: physicochemical
# assayConditions: read-out: logP
reportedEndpoint: logP

>>> endpointresult("O=C(O)c1ccc(COc2ccccc2-c2ccccc2)cc1")
2.03

###

# system: Retinoic acid receptor RXR-beta (Homo sapiens)
# Sequence (P28702 whole entry): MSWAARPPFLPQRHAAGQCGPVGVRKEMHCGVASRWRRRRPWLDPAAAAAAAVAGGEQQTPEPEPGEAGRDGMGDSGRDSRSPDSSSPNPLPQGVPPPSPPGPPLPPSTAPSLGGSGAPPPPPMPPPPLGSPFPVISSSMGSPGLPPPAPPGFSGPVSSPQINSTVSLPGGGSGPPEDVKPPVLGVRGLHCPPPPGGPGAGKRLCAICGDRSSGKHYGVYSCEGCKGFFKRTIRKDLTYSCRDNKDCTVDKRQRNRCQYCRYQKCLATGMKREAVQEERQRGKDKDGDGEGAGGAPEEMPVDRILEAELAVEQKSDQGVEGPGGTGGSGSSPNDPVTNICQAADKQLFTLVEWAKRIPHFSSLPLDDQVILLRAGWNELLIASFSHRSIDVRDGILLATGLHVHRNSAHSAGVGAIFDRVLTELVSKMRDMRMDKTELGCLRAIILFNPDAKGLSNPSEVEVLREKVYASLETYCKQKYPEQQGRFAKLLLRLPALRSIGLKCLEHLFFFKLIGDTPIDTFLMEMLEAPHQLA
# assayComment: Agonist activity at human Gal4-DBD fused RXRbeta LBD expressed in HEK293T cells after 12 to 14 hrs by luciferase reporter gene assay
# Assay type: cell-based
# assayConditions: read-out: EC50
Listed here are compounds together with their documented EC50.
reportedEndpoint: EC50

>>> endpointresult("O=C(O)c1ccc(COc2ccc(Cl)cc2)cc1")
"> 30 µM"
>>> endpointresult("CC(C)(C)c1ccc(OCc2ccc(C(=O)O)cc2)cc1")
"8.9 µM"
>>> endpointresult("CC(C)(C)c1ccc(OCc2ccc(C(=O)O)cc2)c(-c2ccccc2)c1")
"> 30 µM"
>>> endpointresult("O=C(O)c1ccc(COc2cccc(Cl)c2)cc1")
"20 µM"
>>> endpointresult("O=C(O)c1ccc(COc2ccccc2F)cc1")
"> 30 µM"
>>> endpointresult("O=C(O)c1ccc(COc2ccc3c(c2)CCC3)cc1")
"8.8 µM"
>>> endpointresult("O=C(O)c1ccc(OCc2ccc3c(c2)CCC3)cc1")
"21 µM"
>>> endpointresult("O=C(O)c1ccc(COc2cc3c(cc2-c2ccccc2)CCC3)cc1")
"> 30 µM"
>>> endpointresult("O=C(O)c1ccccc1COc1ccc2c(c1)CCC2")
"> 30 µM"
>>> endpointresult("COc1ccccc1OCc1ccc(C(=O)O)cc1")
"> 30 µM"
>>> endpointresult("O=C(O)c1ccc(OCc2ccccc2-c2ccccc2)cc1")
"> 30 µM"
>>> endpointresult("Cc1ccc(OCc2ccc(C(=O)O)cc2)c(-c2ccccc2)c1")
"> 30 µM"
>>> endpointresult("O=C(O)c1ccc(COc2ccccc2)cc1")
"> 30 µM"

###

# system: Retinoic acid receptor RXR-gamma (Homo sapiens)
# assayComment: Agonist activity at human Gal4-DBD fused RXRgamma LBD expressed in HEK293T cells after 12 to 14 hrs by luciferase reporter gene assay relative to bexarotene
# Assay type: cell-based
reportedEndpoint: Emax (%)

>>> endpointresult("O=C(O)Cc1ccc(COc2ccc3c(c2)CCC3)cc1")
8.8
>>> endpointresult("O=C(O)c1ccc(COc2ccccc2-c2ccccc2)cc1")
94
>>> endpointresult("O=C(O)c1ccc(COc2ccccc2OC(F)(F)F)cc1")
25
